All values here come from patent US11331304B2.

assay.protocol: Solubility of verteporfin derivative compounds in water and buffer (pH = 2)
Assay type: physicochemical
protocol.conditions: water, at the amount per volume in mg/mL
property: Water result

# count of solved cases: 4
May I ask what Water result has been recorded for C=Cc1c(C)c2cc3nc(cc4[nH]c(cc5nc(cc1[nH]2)C(C)=C5CCC(=O)NCCCC[C@H](N)C(=O)O)c(CCC(=O)OC)c4C)[C@@]1(C)C3=CC=C(C(=O)OC)[C@H]1C(=O)OC [Compound T5] ?
soluble

Given the entry C=Cc1c(C)c2cc3nc(cc4[nH]c(cc5nc(cc1[nH]2)C(C)=C5CCC(=O)N(C)CCN(C)C)c(CCC(=O)N(C)CCN(C)C)c4C)[C@@]1(C)C3=CC=C(C(=O)OC)[C@H]1C(=O)OC [Compound T15] , report its measured Water result.
soluble

Give its Water result value. Item: C=Cc1c(C)c2cc3nc(cc4[nH]c(cc5nc(cc1[nH]2)C(C)=C5CCC(=O)OCCOCCOCCOC)c(CCC(=O)OC)c4C)[C@@]1(C)C3=CC=C(C(=O)OC)[C@H]1C(=O)OC [Compound T8]
insoluble

Recorded Water result of C=Cc1c(C)c2cc3nc(cc4[nH]c(cc5nc(cc1[nH]2)C(C)=C5CCC(=O)NCCN(C)C)c(CCC(=O)OC)c4C)[C@@]1(C)C3=CC=C(C(=O)OC)[C@H]1C(=O)OC [Compound T11] , please.
insoluble

Note: attention shifts to another entry.
Name the recorded Water result for C=Cc1c(C)c2cc3nc(cc4[nH]c(cc5nc(cc1[nH]2)C(C)=C5CCC(=O)OCCOCCOCCOCCOCCOCCOCCOC)c(CCC(=O)OC)c4C)[C@@]1(C)C3=CC=C(C(=O)OC)[C@H]1C(=O)OC [Compound T10] .
insoluble

###

assay.protocol: Solubility of verteporfin derivative compounds in water and buffer (pH = 2)
Type: physicochemical
protocol.conditions: phosphate buffer pH = 2
property: Buffer (pH = 2) result

Form field: reported Buffer (pH = 2) result of C=Cc1c(C)c2cc3nc(cc4[nH]c(cc5nc(cc1[nH]2)C(C)=C5CCC(=O)OCCOCCOCCOC)c(CCC(=O)OC)c4C)[C@@]1(C)C3=CC=C(C(=O)OC)[C@H]1C(=O)OC [Compound T8]
insoluble

For C=Cc1c(C)c2cc3nc(cc4[nH]c(cc5nc(cc1[nH]2)C(C)=C5CCC(=O)N[C@@H](CC(=O)O)C(=O)O)c(CCC(=O)N[C@@H](CC(=O)O)C(=O)O)c4C)[C@@]1(C)C3=CC=C(C(=O)OC)[C@H]1C(=O)OC [Compound T3] , what is its reported Buffer (pH = 2) result?
insoluble
